Target: T1, Human recombinant melanocortin MC1 receptor (human, UniProt Q01726 1-317)
T1 construct: whole, on cells; Eurofins Discovery assay Item 251100; a 3 ug aliquot of receptors from CHO-K1 cells was incubated, filtered and washed (probably a membrane preparation); also called Melanocortin 1 Receptor; MCIR
T1 sequence (Q01726 whole entry): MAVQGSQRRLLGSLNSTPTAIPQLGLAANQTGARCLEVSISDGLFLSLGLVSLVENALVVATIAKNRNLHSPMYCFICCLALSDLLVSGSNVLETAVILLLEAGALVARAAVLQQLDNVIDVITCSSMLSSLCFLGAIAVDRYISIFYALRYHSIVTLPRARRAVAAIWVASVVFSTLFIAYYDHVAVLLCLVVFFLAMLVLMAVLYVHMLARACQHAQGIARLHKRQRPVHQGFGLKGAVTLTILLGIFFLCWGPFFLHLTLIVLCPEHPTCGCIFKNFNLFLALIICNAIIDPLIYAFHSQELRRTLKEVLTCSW
Assay: radioligand competition, displacement of [125I]NDP-alpha-MSH from human MC1R (CHO-K1), Example 7
Square brackets hold non-standard residues; d marks the D form. Ends that are not written are not given here.
# IC50 listing for each entry below

// solved cases for IC50 follow
EV[dF]R[dW]FKPV-NH2 (N-terminus assumed; SMILES CC(C)[C@H](NC(=O)[C@@H]1CCCN1C(=O)[C@H](CCCCN)NC(=O)[C@H](Cc1ccccc1)NC(=O)[C@@H](Cc1c[nH]c2ccccc12)NC(=O)[C@H](CCCNC(=N)N)NC(=O)[C@@H](Cc1ccccc1)NC(=O)[C@@H](NC(=O)[C@@H](N)CCC(=O)O)C(C)C)C(N)=O, Printed as Glu-Val-dPhe-Arg-dTrp-Phe-Lys-Pro-Val-NH2) [SEQ ID NO: 25]	> 500 nM
IFR[dW]FKPV-NH2 (N-terminus assumed; SMILES CC[C@H](C)[C@H](N)C(=O)N[C@@H](Cc1ccccc1)C(=O)N[C@@H](CCCNC(=N)N)C(=O)N[C@H](Cc1c[nH]c2ccccc12)C(=O)N[C@@H](Cc1ccccc1)C(=O)N[C@@H](CCCCN)C(=O)N1CCC[C@H]1C(=O)N[C@H](C(N)=O)C(C)C, Printed as Ile-Phe-Arg-dTrp-Phe-Lys-Pro-Val-NH2 (8 residues)) [SEQ ID NO: 32]	< 200 nM

# input for lookup
// query For the binder FV[dF]R[dW]FKPV-NH2 (N-terminus assumed; SMILES CC(C)[C@H](NC(=O)[C@@H]1CCCN1C(=O)[C@H](CCCCN)NC(=O)[C@H](Cc1ccccc1)NC(=O)[C@@H](Cc1c[nH]c2ccccc12)NC(=O)[C@H](CCCNC(=N)N)NC(=O)[C@@H](Cc1ccccc1)NC(=O)[C@@H](NC(=O)[C@@H](N)Cc1ccccc1)C(C)C)C(N)=O, Printed as Phe-Val-dPhe-Arg-dTrp-Phe-Lys-Pro-Val-NH2) [SEQ ID NO: 16] , give its measured IC50 value.
// result < 200 nM
